Each item that follows carries a reported GI50.
- testSystem: Ba/F3 EGFR-Del19/C797S (Homo sapiens, UniProt P00533, C797S, cells depend on it, form not given)
- Sequence (P00533 with tags, fused parts or gaps DEL746-750/C797S, form open): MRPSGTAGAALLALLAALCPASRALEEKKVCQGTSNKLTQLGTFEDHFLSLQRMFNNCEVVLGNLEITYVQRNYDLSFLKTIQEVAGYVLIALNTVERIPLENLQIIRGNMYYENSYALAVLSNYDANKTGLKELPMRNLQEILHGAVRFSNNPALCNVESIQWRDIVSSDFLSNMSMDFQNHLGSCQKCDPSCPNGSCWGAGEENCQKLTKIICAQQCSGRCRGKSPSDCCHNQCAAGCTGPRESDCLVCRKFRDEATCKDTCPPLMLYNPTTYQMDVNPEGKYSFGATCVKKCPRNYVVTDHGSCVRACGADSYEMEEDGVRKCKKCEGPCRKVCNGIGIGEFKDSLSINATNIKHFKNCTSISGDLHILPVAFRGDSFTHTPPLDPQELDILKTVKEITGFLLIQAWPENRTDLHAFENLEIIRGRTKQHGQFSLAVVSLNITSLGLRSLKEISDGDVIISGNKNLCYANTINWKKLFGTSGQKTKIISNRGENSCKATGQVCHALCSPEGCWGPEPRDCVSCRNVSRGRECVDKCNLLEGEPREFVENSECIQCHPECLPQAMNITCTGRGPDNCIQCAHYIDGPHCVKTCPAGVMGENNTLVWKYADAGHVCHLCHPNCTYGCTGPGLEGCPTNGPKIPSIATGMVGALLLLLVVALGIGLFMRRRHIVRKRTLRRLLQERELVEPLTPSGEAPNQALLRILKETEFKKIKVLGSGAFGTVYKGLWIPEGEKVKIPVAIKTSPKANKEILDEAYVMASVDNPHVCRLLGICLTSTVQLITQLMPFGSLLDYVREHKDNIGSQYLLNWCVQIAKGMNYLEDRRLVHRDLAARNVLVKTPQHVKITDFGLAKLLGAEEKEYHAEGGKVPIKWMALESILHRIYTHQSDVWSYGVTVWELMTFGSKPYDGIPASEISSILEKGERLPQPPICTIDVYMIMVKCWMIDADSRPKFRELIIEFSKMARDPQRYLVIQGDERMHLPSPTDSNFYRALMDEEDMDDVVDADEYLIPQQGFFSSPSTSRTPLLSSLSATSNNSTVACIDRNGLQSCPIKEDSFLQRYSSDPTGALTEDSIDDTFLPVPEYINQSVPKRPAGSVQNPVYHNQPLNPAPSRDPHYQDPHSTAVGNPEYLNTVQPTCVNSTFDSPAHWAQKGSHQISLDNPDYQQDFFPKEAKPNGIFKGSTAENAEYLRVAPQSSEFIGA
- protocolNotes: Ba/F3 viability assay (CellTiter-Glo), DC
- Format: cell-based
- testParameters: anti-proliferation, read-out: BaF3 DC IC50
- Text: Inhibition of cell proliferation can be studied using Ba/F3 viability assays, including the Promega CellTiter-Glo cell viability assay. This assay can be used to study the effect of compounds described herein in the following assays: (1) Ba/F3 Parental; (2) Ba/F3 EGFR-Del19/T790M; (3); Ba/F3 EGFR-Del19/C797S; and (4) Ba/F3 EGFR-Del19/T790M/C797S.

compound: C[C@H]1CCOc2c(cnn2C)-c2nccc(n2)Nc2cc3c(cn2)c(N2CC[C@@H](O)C2)nn31 [(112)]
GI50: 10 to 100 nM
--
compound: C[C@H]1CCOc2c(cnn2C)-c2nccc(n2)Nc2cc3c(cn2)c(-c2cccc(N4CC[C@@H](N(C)C)C4)c2)nn31 [(166)]
GI50: < 10 nM
--
compound: CCN1CCC(Oc2cc(F)cc(-c3nn4c5cc(ncc35)Nc3ccnc(n3)-c3cnn(C)c3OCC[C@@H]4C)c2)CC1 [(128)]
GI50: 10 to 100 nM
--
compound: CCN(CC)CCOc1cccc(-c2nn3c4cc(ncc24)Nc2ccnc(n2)-c2cnn(C)c2OCC[C@@H]3C)c1C [(158)]
GI50: 100 to 1000 nM
--
compound: C[C@H]1CCOc2c(cnn2C)-c2nccc(n2)Nc2cc3c(cn2)c(-c2ccc(CN(C)C)n2C)nn31 [(127)]
GI50: < 10 nM
--
compound: C[C@H]1CCOc2c(cnn2C)-c2nccc(n2)Nc2cc3c(cn2)c(-c2ccn(C)c2)nn31 [(109)]
GI50: < 10 nM
--
compound: CC(C)N(C)Cc1ccc(-c2nn3c4cc(ncc24)Nc2ccnc(n2)-c2cnn(C)c2OCC[C@@H]3C)n1C [(189)]
GI50: < 10 nM
